# TESTED SYSTEM: Lp-PLA2 in human plasma (Homo sapiens)
# Construct: from tissue; host or cells: pooled human plasma
# Sequence (Q13093 22-441): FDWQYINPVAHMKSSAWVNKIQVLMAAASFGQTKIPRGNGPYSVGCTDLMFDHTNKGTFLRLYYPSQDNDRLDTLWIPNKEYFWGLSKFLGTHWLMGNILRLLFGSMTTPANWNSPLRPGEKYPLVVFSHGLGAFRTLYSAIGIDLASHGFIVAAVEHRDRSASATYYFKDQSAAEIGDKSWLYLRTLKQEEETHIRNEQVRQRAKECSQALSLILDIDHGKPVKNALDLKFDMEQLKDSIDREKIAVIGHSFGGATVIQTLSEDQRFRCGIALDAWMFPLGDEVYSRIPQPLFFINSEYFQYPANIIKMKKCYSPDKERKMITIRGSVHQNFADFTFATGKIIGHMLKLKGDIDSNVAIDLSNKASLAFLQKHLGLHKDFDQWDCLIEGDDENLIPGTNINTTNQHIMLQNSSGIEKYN
# PROTOCOL NOTES: (3a) Lp-PLA2 human plasma Thio-PAF assay
# Format: biochemical
# CONDITION DETAILS: (3a) Thio-PAF assay, pooled human plasma; Examples 1-265 and 413-430 were tested here; read-out: pIC50 in the Lp-PLA2 human plasma assay (converted)
Could you please report measured IC50 for the items listed next?

Before answering, review these 2 worked examples.
INSERT INTO measurements (compound, reported_value) VALUES
  ('O=c1nc(OCc2cc(F)c(Oc3ccnc(C(F)(F)F)c3)c(F)c2)cc2n1CC1OCCCN21 (single isomer, unassigned) [Example E162]', '≤ 0.1 µM'),
  ('CN1c2cc(OCc3cc(F)c(F)c(F)c3)nc(=O)n2CC12CCC2', '≤ 0.1 µM');

Below are some compounds; for each one, tell me its IC50.
1. O=c1nc(OCc2cc(F)c(Oc3cnn(C(F)(F)F)c3)c(F)c2)cc2n1C[C@H]1COCN21
2. O=c1nc(OCc2cc(F)c(Oc3cnc(C(F)(F)F)nc3)c(F)c2)cc2n1C[C@@H]1CCCN21
3. O=c1nc(OCc2cc(F)c(Oc3ccnc(C(F)(F)F)c3)c(F)c2)cc2n1CC1CCCN21 (stereo not shown)

1: ≤ 0.1 µM; 2: ≤ 0.1 µM; 3: ≤ 0.1 µM

Below are some compounds; for each one, tell me its IC50.
1. O=c1nc(OCc2ccc(F)cc2F)cc2n1C[C@H]1COCCN21
2. O=c1nc(OCc2ccc(F)cc2F)cc2n1C[C@@H]1COCCN21
3. O=c1nc(OCc2cccc(F)c2)cc2n1C[C@H]1COCN21
4. O=c1nc(OCc2cc(F)c(OC3(CCF)CC3)c(F)c2)cc2n1C[C@@H]1COCCN21

1: ≤ 10 µM; 2: ≤ 10 µM; 3: ≤ 10 µM; 4: ≤ 10 µM

Below are some compounds; for each one, tell me its IC50.
1. CN1CCN2c3cc(OCc4cc(F)c(Oc5cnn(C)c5)c(F)c4)nc(=O)n3CC2C1 (stereo not shown)
2. O=c1nc(OCc2cc(F)c(OC3(CCF)CC3)c(F)c2)cc2n1C[C@H]1COCCN21

["≤ 10 µM", "≤ 10 µM"]

Below are some compounds; for each one, tell me its IC50.
1. O=c1nc(OCc2ccc(Oc3cncc(C(F)(F)F)c3)c(F)c2)cc2n1CC1CCCCN21 (stereo not shown)
2. CCCCN1CC(Oc2c(F)cc(COc3cc4n(c(=O)n3)C[C@@H]3CCCN43)cc2F)C1
3. CN1c2cc(OCc3ccc(F)cc3F)nc(=O)n2CC12CCC2

≤ 0.1 µM
≤ 10 µM
≤ 10 µM

Below are some compounds; for each one, tell me its IC50.
1. O=c1nc(OCc2cc(F)c(Oc3ccnc(C(F)(F)F)c3)c(F)c2)cc2n1C[C@@H]1CCOCN21
2. O=c1nc(OCc2cccc(F)c2F)cc2n1C[C@H]1CCCCN21

1. ≤ 0.1 µM
2. ≤ 10 µM
